Below, each entry is listed with its recorded furin cleavage Z-score.
# MEASURED ON: furin, P09958
# Sequence (P09958 whole entry): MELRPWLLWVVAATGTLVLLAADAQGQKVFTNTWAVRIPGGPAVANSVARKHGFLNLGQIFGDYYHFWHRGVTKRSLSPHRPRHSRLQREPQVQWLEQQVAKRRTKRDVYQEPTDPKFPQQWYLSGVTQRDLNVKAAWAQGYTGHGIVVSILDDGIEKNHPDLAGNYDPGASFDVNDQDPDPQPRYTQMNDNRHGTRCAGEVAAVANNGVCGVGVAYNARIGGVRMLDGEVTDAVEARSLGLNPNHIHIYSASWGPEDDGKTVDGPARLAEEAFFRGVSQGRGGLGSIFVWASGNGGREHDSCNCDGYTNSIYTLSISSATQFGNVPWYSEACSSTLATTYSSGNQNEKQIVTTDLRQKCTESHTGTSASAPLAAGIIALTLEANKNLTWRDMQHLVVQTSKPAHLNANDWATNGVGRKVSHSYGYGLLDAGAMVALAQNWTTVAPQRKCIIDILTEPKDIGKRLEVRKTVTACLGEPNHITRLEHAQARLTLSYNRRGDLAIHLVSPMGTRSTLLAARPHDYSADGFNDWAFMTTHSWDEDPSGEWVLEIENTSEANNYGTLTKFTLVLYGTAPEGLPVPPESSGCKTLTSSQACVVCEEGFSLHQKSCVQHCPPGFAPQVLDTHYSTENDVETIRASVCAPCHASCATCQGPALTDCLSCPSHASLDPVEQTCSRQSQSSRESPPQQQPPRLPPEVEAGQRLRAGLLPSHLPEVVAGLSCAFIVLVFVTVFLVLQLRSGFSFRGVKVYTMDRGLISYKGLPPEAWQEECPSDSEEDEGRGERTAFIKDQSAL
# RUN DESCRIPTION: furin cleavage Z-score vs untreated control; higher = more cleavage, active = 3.5 or more, inactive = 1 or less, 8 variable residues between constant flanks;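 also: purified furin at 1:10 enzyme:substrate in 50 mM HEPES pH 7.5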
# CONDITION SUMMARY: 30 min
The list shows a part of the results. The true hit rate is not given.

| RESIDUE STRING | furin cleavage Z-score |
| --- | --- |
| CAPVVHGCPLAGNASASA [HC1315] | -0.124 (inactive) |
| CAEVVTSFWVAGNASASA [HC2207] | -0.243 (inactive) |
| CAVVCCSMQYAGNASASA [HC2082] | 0.648 (inactive) |
| CAESGRENRSAGNASASA [FS-764] | -0.14 (inactive) |
| CAVISRKKRMAGNASASA [FS-888] | 8.35 (active) |
| CAEVVTCTWVAGNASASA [HC154] | 0.00628 (inactive) |
| CATNRRKKRAAGNASASA [FS-1174] | 8.15 (active) |
| CARGPRRRRSAGNASASA [FS-856] | 7.78 (active) |
| CATNRRPQDVAGNASASA [HC168] | 0.59 (inactive) |
| CATVLDQAETAGNASASA [HC826] | -0.728 (inactive) |
| CAQTNWQKLEAGNASASA [HC1036] | -0.384 (inactive) |
| CAHKFNSSGCAGNASASA [HC383] | -0.526 (inactive) |
| CAWRQEMGGNAGNASASA [HC1277] | 1.35 |
| CAEVVTSEWVAGNASASA [HC2212] | -0.598 (inactive) |
| CATTPCSGEWAGNASASA [HC1912] | 0.0519 (inactive) |
| CASERSQPRGAGNASASA [HC187] | 0.503 (inactive) |
| CAQEMGGNITAGNASASA [HC1278] | 0.798 (inactive) |
| CAGDDDDKAGAGNASASA [EK1] | 0.274 (inactive) |
| CALLLALPQRAGNASASA [HC560] | -1.36 (inactive) |
| CAYCWHYPPKAGNASASA [HC403] | 2.44 |
| CAPRRRKGRNAGNASASA [FS-1473] | 9.35 (active) |
| CAESEVPCHRAGNASASA [HC2457] | 0.878 (inactive) |
| CATPGCVPCVAGNASASA [HC272] | 0.199 (inactive) |
| CAPGALVVGVAGNASASA [HC1105] | -0.0726 (inactive) |
| CATDNRSRKRAGNASASA [FS-1658] | -1.94 (inactive) |
| CACEMEECSQAGNASASA [HC1800] | -0.298 (inactive) |
| CAFKHRRARFAGNASASA [FS-767] | 8.1 (active) |
| CAQVPSPEFFAGNASASA [HC1218] | 0.459 (inactive) |
| CAVVCCSMSLAGNASASA [HC2085] | 0.456 (inactive) |
| CATVRRQKREAGNASASA [FS-1175] | 9.11 (active) |
